Target: T1, human CD112R on Jurkat CD112R effector cells (human, UniProt Q6DKI7 1-326)
T1 sequence (looked up): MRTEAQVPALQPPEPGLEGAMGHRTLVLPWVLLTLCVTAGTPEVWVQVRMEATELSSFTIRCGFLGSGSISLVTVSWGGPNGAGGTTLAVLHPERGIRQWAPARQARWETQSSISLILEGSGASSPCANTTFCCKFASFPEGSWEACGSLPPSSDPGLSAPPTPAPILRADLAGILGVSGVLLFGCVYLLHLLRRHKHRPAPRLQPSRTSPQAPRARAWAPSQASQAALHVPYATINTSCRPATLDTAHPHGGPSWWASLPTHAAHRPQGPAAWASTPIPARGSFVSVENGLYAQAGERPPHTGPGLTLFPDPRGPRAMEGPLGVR
Test: cell-based or functional assay
# label = y if EC50, CD112R/CD112 reporter < 20 ng/mL else n

Threshold test, EC50, CD112R/CD112 reporter < 20 ng/mL: Chi-63 (antibody, V domains shown, chimeric) VH: DVKLVESGGGLVKLGGSLKLSCAASGFTFSSYHMSWVRQTPEKRLELVAAISRDGDSTYYPDTVKGRFTISRDDAENTLYLQMSSLKSEDTALYYCSRHEDYFGFAMDSWGQGTSVTVSS VL: SIVMTQTPKFLLVSAGDRVTITCKASQSVTNDVAWYQQKPGQSPKLLMYYVSNHYTGVPDRFIGSGYGTDFTFTISTVQAEDLAVYFCQQAYRSPWTFGGGTKLEIK
y

And Chi-54 (antibody, V domains shown, chimeric) VH: DVKLVESGGGLVKLGGSLKLSCAASGFTFSSYHMSWIRQTPEKRLELVAAINSNGINTYYLDTVKGRFTISRDNAKNTLYLQMSSLKSEDTALYYCARHEDYYGFAMDYWGQGTSVTVSS VL: SIVMTQTPKFLLVSAGDRVTITCKASQSVSNDVAWYQQKPGQSPKLLMYYVSNRFTGVPDRFTGSGYGTDFTFTINTVQAEDLAVYFCQQAYRSPWTFGGGTKLEIK ?
y

And Chi-36 (antibody, V domains shown, chimeric) VH: EVQLQQSGPELVKPGASVRISCKASGYTFTDYNMHWVKQSHGKSLEWIGYIYPYNGGTGHNQNFKSKATLTVDKSSSTAYMEFRSLTSDDSAVYYCAREDFRHEKMDYWGQGTSVTVSS VL: DIQMTQSPASLSASVGETVTITCRTSDNIYVYLSWYQQKQGKSPQLLVYNAKTLTENVPSRFSGSGSGTQFSLKINSLQPEDFGSYYCQHHYGTPYTFGGGTKLEIK ?
n

And Chi-61 (antibody, V domains shown, chimeric) VH: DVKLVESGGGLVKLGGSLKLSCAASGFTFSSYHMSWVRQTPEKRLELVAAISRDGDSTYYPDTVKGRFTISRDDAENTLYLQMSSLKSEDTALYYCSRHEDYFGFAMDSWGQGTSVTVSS VL: SIVMTQTPKFLLVSAGDRVTITCKASQSVSNDVAWYQEKPGQSPKLLMYYVSHRFTGVPDRFTGSGYGTDFTFTINTVQAEDLAVYFCHQAYRSPWTFGGGTKLEIK ?
y

And Chi-46 (antibody, V domains shown, chimeric) VH: DVKLVESGGGLVKLGGSLKLSCAASGFTFSSYHMSWVRQTPEKRLELVAAINSNVISTYYLDTVKGRFTISRDNAKNTLYLQMSSLKSEDTALYYCARHEDYYGFAMDYWGQGTSVTVSS VL: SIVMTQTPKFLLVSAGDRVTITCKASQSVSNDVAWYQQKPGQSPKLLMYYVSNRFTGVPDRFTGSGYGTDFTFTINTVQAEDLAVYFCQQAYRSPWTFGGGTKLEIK ?
y
